B1: FAM46D (parent)
chain: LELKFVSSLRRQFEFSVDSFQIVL

variants of: B1; assay: protein stability index of a GFP-peptide fusion (GPS, HEK-293T) (PSI 1-6); higher = more stable; conditions: c terminus: a fixed tail appended;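 further: lentivirally expressed fusions sorted by FACS into six bins by GFP to DsRed ratio, PSI derived from sequencing read proportions per bin multiplied by bin number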
// Not fulfilled strictly below 3 in protein stability index; Fulfilled otherwise

Worked cases, answers included:
**Query** Given F5Q , state whether its protein stability index is at least 3.
**Result** Not fulfilled

**Query** Is protein stability index at least 3? Consider E14K
**Result** Fulfilled

**Query** Tell me whether protein stability index is at least 3 here: E14W
**Result** Not fulfilled

**Query** Answer whether protein stability index of S16K is greater than or equal to 3.
**Result** Fulfilled

**Query** Answer whether protein stability index of V23L is greater than or equal to 3.
**Result** Not fulfilled

Continuing:
**Query** Reported protein stability index reaches at least 3 for L3R ?
**Result** Not fulfilled

**Query** Reported protein stability index reaches at least 3 for L24P ?
**Result** Not fulfilled

**Query** Reported protein stability index at or above 3? I22E
**Result** Not fulfilled
